Recorded endpoint: melting point

[
  {
    "Structure smiles string": "O=C(N/N=C/c1c(C(F)(F)F)ccc(Cl)c1O)c1ccccc1O",
    "Recorded endpoint": "melting point",
    "Result": "278 to 280 °C"
  }
]

Value lookup for melting point; key = `Cc1cccc(C(=O)N/N=C/c2ccc(Cl)c(Cl)c2O)c1`
212 to 214 °C

Value lookup for melting point; key = `O=C(N/N=C/c1cc(Cl)cc(C(F)(F)F)c1O)c1ccccc1`
225 to 226 °C

Value lookup for melting point; key = `O=C(N/N=C/c1cc(C(F)(F)F)ccc1O)c1ccccc1`
214 to 217 °C

Value lookup for melting point; key = `O=C(N/N=C/c1cc(Cl)cc(C(F)(F)F)c1O)c1ccccc1O`
258 to 260 °C

Value lookup for melting point; key = `Cc1cccc(C(=O)N/N=C/c2c(Cl)ccc(Cl)c2O)c1`
214 to 216 °C

Value lookup for melting point; key = `O=C(N/N=C/c1cccc(C(F)(F)F)c1O)c1ccc(Cl)cc1`
215 to 216 °C

---

Each entry below carries its reported inhibition of growth at 1 µg/mL.
system: C. reinhardtii CC-1928; experiment: Effect of copper on activity of hydrazones: in vitro growth inhibition of C. reinhardtii in TAP Cu minus / TAP Cu plus medium (Example 10); type: cell-based, Chlamydomonas reinhardtii; conditions: Chlamydomonas reinhardtii; test compound 1 μg/mL; TAP Cu minus medium; 48 h; read-out: % Inhn. Minus Copper Observed
Please state the figure in %; there is no need to write the unit.

[
  {
    "Structure smiles string": "O=C(N/N=C/c1cc(Cl)cc(C(F)(F)F)c1O)c1ccccc1O",
    "Recorded endpoint": "inhibition of growth at 1 µg/mL",
    "Measurement unit": "%",
    "Numeric result": 18
  },
  {
    "Structure smiles string": "C/C(=N\\NC(=O)c1cccc(C)c1)c1cc(Cl)cc(Cl)c1O",
    "Recorded endpoint": "inhibition of growth at 1 µg/mL",
    "Measurement unit": "%",
    "Numeric result": 33
  },
  {
    "Structure smiles string": "O=C(N/N=C/c1cc(C(F)(F)F)cc(Cl)c1O)c1ccccc1",
    "Recorded endpoint": "inhibition of growth at 1 µg/mL",
    "Measurement unit": "%",
    "Numeric result": -2
  },
  {
    "Structure smiles string": "C/C(=N\\NC(=O)c1c(C)cccc1O)c1cc(Cl)cc(Cl)c1O",
    "Recorded endpoint": "inhibition of growth at 1 µg/mL",
    "Measurement unit": "%",
    "Numeric result": 3
  },
  {
    "Structure smiles string": "C/C(=N\\NC(=O)c1ccc(Cl)cc1)c1cccc([N+](=O)[O-])c1O",
    "Recorded endpoint": "inhibition of growth at 1 µg/mL",
    "Measurement unit": "%",
    "Numeric result": -37
  },
  {
    "Structure smiles string": "C/C(=N\\NC(=O)c1ccccc1Br)c1cc(Cl)cc(Cl)c1O",
    "Recorded endpoint": "inhibition of growth at 1 µg/mL",
    "Measurement unit": "%",
    "Numeric result": 26
  },
  {
    "Structure smiles string": "O=C(N/N=C/c1cc(Cl)cc(Br)c1O)c1ccccc1O",
    "Recorded endpoint": "inhibition of growth at 1 µg/mL",
    "Measurement unit": "%",
    "Numeric result": 13
  },
  {
    "Structure smiles string": "O=C(N/N=C/c1cc(C(F)(F)F)cc(C(F)(F)F)c1O)c1ccc(Cl)cc1",
    "Recorded endpoint": "inhibition of growth at 1 µg/mL",
    "Measurement unit": "%",
    "Numeric result": 21
  }
]

Here's the next entry for you.
Value lookup for inhibition of growth at 1 µg/mL; key = `O=C(N/N=C/c1cc(Cl)cc(Cl)c1O)c1ccc(Cl)cc1`
-5
